Measured target: recombinant human NSD2 (Homo sapiens)
Construct: (amino acids 2-end); His tag (N)
Sequence (O96028 2-1365 limits assumed): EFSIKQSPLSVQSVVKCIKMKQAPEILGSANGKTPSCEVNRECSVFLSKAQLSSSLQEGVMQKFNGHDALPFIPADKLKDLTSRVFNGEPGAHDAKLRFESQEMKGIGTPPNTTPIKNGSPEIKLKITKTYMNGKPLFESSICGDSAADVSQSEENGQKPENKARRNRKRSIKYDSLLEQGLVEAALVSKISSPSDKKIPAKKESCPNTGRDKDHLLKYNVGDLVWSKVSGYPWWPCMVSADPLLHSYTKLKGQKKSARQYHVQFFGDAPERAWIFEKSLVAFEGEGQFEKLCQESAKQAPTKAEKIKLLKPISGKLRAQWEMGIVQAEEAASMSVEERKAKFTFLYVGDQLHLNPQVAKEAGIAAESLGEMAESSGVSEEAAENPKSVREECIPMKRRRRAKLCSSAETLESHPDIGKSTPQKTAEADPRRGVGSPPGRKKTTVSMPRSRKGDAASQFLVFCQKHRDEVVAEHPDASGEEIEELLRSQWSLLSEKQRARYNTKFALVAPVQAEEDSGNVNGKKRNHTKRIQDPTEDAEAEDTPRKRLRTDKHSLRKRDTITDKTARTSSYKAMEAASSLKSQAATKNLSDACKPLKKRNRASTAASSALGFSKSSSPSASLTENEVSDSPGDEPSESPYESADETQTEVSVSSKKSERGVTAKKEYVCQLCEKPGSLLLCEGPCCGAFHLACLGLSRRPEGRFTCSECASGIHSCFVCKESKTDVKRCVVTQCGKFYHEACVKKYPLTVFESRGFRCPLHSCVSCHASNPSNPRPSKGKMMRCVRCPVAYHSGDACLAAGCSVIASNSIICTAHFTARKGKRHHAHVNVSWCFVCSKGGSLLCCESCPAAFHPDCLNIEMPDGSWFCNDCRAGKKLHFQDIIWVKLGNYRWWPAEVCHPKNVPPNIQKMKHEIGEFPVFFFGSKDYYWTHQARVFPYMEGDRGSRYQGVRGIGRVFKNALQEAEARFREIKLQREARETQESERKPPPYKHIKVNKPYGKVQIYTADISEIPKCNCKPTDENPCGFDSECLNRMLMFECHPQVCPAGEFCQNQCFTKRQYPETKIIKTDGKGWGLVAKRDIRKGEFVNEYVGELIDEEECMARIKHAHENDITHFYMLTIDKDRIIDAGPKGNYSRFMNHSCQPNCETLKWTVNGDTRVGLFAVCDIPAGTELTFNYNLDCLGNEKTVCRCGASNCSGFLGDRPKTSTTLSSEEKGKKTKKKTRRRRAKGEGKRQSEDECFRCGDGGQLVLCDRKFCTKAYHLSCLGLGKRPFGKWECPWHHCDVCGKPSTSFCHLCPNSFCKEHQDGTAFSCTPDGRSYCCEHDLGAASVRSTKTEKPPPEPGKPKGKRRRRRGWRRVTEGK
Assay protocol: NSD2 inhibition assay (3H-SAM histone methyltransferase, oligonucleosome substrate)
Test context: recombinant human NSD2 (aa 2-end, His tag) 2 nM, chicken oligonucleosomes 0.05 mg/ml, 3H-SAM 1 μM, 1 hour at 30° C.

[
  {
    "Molecule": "[2H]C([2H])([2H])Oc1cc(F)c(-c2cc(Cn3cnc4c(N)ncnc43)c(N3CCC[C@](N)([C@H](O)C(F)F)C3)cn2)cc1F",
    "Measured target": "recombinant human NSD2 (Homo sapiens)",
    "IC50": "< 10 nM"
  }
]
